- System: UO-31 renal
- measurement.protocol: NCI-60 one-dose screen, 48 h
- study.conditions: 10 µM unless noted
This is part of a sample that, as a whole, favours compounds with a hit. Of some 83,000 tested, about 20% had one in any assay. The source made the active and inactive calls. Rule for the calls: active = growth percent below 10; inactive = the rest.
Labels: yes for active, no for inactive

compound | class.assignment
CCN(CC)c1ccc(/C=C/c2ccc3cc(C)ccc3[n+]2CC)cc1 | yes
C=CCc1nc2ccccc2s1 | no
NC(=O)c1cccc(-c2ccc(S(=O)(=O)Nc3ccc4c(c3)N(C(=O)C3CC3)CCC4)cc2)c1 | no
Cc1cnc([C@]23CC[C@@H](C)[C@H](C)[C@H]2C2=CC[C@@H]4[C@@]5(C)Cc6c([nH]c7ccccc67)C(C)(C)[C@@H]5CC[C@@]4(C)[C@]2(C)CC3)o1 | no
C#CCNC(=O)CC[C@@H](C)[C@H]1CC[C@H]2[C@@H]3CC[C@@H]4CC(=O)CC[C@]4(C)[C@H]3CC[C@]12C | yes
CCCN1CC(c2ccc(OC)c(OC)c2)=C(c2cn(C(=O)OCC)c3ccccc23)C1=O | no
O=C(CSc1nccc(Nc2ccc(S(=O)(=O)Nc3ccccn3)cc2)n1)c1ccc(Cl)cc1 | no
CNc1cc(C(=O)O)nc(NC)n1 | no
C=C(C)C1CCC2(C(=O)O)CCC3(C)C(CCC4C5(C)CCC(OC(=O)NCc6ccccc6)C(C)(C)C5CCC43C)C12 (stereo not given) | no
CCN(CC)CCCC(C)Nc1c2ccc(C)cc2nc2ccc(OC)cc12 (stereo not given) | yes

* * *

Measured growth of individual entries
- Test system: DU-145 prostate
- measurement.protocol: NCI-60 one-dose screen, 48 h (100 = growth as untreated, 0 = no growth, -100 = all killed)
- study.conditions: 10 µM unless noted
Compounds without any hit were thinned out: in the full panel of roughly 83,000, 20% have a hit.
measurement.kind: growth (%)

molecule | subject.of.test | meas.value
CCOC(=O)c1nc2c3ccccc3ccn2c1C(=O)OC | DU-145 prostate | 104
O=C(Nc1cccc2ccccc12)c1cc2ccccc2cc1O | DU-145 prostate | 25.7
NC(=O)c1c(NC(=O)COC(=O)Cc2ccccc2F)sc2c1CCC2 | DU-145 prostate | 104
N#C/C(C(=O)c1ccccc1)=C1/C(=O)Nc2ccc(Br)cc21 | DU-145 prostate | 108
Cc1cc(-c2ccc(N=Nc3c(S(=O)(=O)O)cc4cc(S(=O)(=O)O)cc(N)c4c3O)c(C)c2)ccc1N=Nc1cc(S(=O)(=O)O)c2ccccc2c1O | DU-145 prostate | 112
O=C1C(Cl)=C(Nc2ccc3cn[nH]c3c2)C(=O)c2ccccc21 | DU-145 prostate | -100
COc1cccc(-c2[nH]c(=S)ncc2C(=O)c2ccccc2)c1 | DU-145 prostate | 98.4
COc1cc(Cl)cc(-c2nn(C(=O)NS(=O)(=O)c3ccccc3)cc2-c2ccncc2)c1 | DU-145 prostate | 82.5
CCCn1ccnc1C(O)c1ccc(OCc2ccccc2)c(OC)c1 (stereo not given) | DU-145 prostate | 104
C#C[C@]1(O)CC[C@H]2[C@@H]3CC=C4c5nc(N)sc5CC[C@]4(C)[C@H]3CC[C@@]21C | DU-145 prostate | 71.2

* * *

- Tested on: NCI/ADR-RES ovarian
- measurement.protocol: NCI-60 one-dose screen, 48 h (100 = growth as untreated, 0 = no growth, -100 = all killed)
- study.conditions: 10 µM unless noted
The panel holds about 83,000 compounds, 20% with a hit somewhere; the sample as a whole holds those more often.
Measured growth of individual entries
measurement.kind: growth (%)

molecule | subject.of.test | meas.value
C#C[C@]1(O)CC[C@H]2[C@@H]3CC=C4c5nc(Nc6ccccc6[N+](=O)[O-])sc5CC[C@]4(C)[C@H]3CC[C@@]21C | NCI/ADR-RES ovarian | 75.8
Nn1c(Nc2ccc(S(=O)(=O)Nc3ncccn3)cc2)nnc(/C=C/c2c(O)ccc3ccccc23)c1=O | NCI/ADR-RES ovarian | 94.6
COc1ccc(-c2cc(-c3ccc(Cl)cc3)nc(SCCCCCCC(=O)NO)n2)cc1 | NCI/ADR-RES ovarian | 2.26
CC[C@@](C)(NC(=O)[C@H](C)NC(=O)CCNC(=O)C(C)(C)NC(=O)[C@H](C)NC(=O)[C@@H]1CCCN1C(=O)[C@@](C)(CC)NC(=O)[C@H](Cc1ccccc1)NC(=O)C1CCCN1C(=O)C(C)(C)NC(=O)C1CCCN1C(=O)C(C)(C)NC(C)=O)C(=O)NCCC(=O)N[C@@H](CC(C)C)C(=O)NC(C)(C)C(=O)NCCC(=O)N[C@@H](CC(C)C)C(=O)NC(C)(C)C(=O)NC(C)(C)C(=O)N[C@@H](CC(C)C)C(=O)NCCC(=O)NCO (stereo partly drawn) | NCI/ADR-RES ovarian | -93.3
O=[N+]([O-])c1cc([N+](=O)[O-])c(C(F)(F)F)cc1NN=C(c1ccc(O)cc1)c1ccc(O)cc1 | NCI/ADR-RES ovarian | -19.9
Cc1ccc(Cn2c(O)c(N=NC(=O)c3ccc(S(N)(=O)=O)cc3)c3ccccc32)cc1 | NCI/ADR-RES ovarian | 108
Cc1cc2c(C(C)C)c(O)c(O)c(C=NCc3ccoc3)c2c(O)c1-c1c(C)cc2c(C(C)C)c(O)c(O)c(C=NCc3ccco3)c2c1O | NCI/ADR-RES ovarian | 44.4
C=CCCCCCCCCC(=O)OC(C)C | NCI/ADR-RES ovarian | 102
